test_target: hCA II (Homo sapiens)
assay_summary: stopped-flow CO2 hydration assay, hCA II
Format: biochemical
pKi: −log10 of the molar value.
property: pKi

// solved cases for pKi follow
compound: COCCOc1cc2ncnc(Nc3cccc(-c4cn(CCOCCOCCOCCNC(=S)NCCc5ccc(S(N)(=O)=O)cc5)nn4)c3)c2cc1OCCOC
test_target: hCA II (Homo sapiens)
property: pKi
observed_value: 6.97

compound: COCCOc1cc2ncnc(Nc3cccc(-c4cn(CCOCCOCCOCCOCCOCCNC(=S)Nc5ccc(S(N)(=O)=O)cc5)nn4)c3)c2cc1OCCOC [compound 14b]
test_target: hCA II (Homo sapiens)
property: pKi
observed_value: 5.01

compound: COCCOc1cc2ncnc(Nc3cccc(-c4cn(CCOCCOCCOCCNC(=S)Nc5ccc(S(N)(=O)=O)c(C)c5Br)nn4)c3)c2cc1OCCOC
test_target: hCA II (Homo sapiens)
property: pKi
observed_value: 6.27

A. COCCOc1cc2ncnc(Nc3cccc(-c4cn(CCOCCOCCOCCOCCOCCNC(=O)Nc5cccc(S(N)(=O)=O)c5)nn4)c3)c2cc1OCCOC [compound 12a]
B. COCCOc1cc2ncnc(Nc3cccc(-c4cn(CCOCCOCCOCCOCCOCCNC(=O)NCc5ccc(S(N)(=O)=O)cc5)nn4)c3)c2cc1OCCOC [compound 12c]
C. COCCOc1cc2ncnc(Nc3cccc(-c4cn(CCOCCOCCOCCOCCOCCNC(=O)Nc5ccc(S(N)(=O)=O)cc5)nn4)c3)c2cc1OCCOC [compound 12b]
Q: Rank items: key pKi, increasing. Dear reader, please state the labels in the requested order.
Ans: A, C, B
(A: 5.99, C: 7.04, B: 9.10)
